Biological target: Glycogen synthase kinase-3 beta (Homo sapiens)
Would you mind telling me the reported pIC50 of each entry?
Answers are plain numbers, as −log10 of the molar value.

[
  {
    "compound": "O=C1NC(NC23CC4CC(CC(F)(C4)C2)C3)=N/C1=C\\c1ccc2ncsc2c1",
    "value": 6.77
  },
  {
    "compound": "COC12CC3CC(CC(NC4=N/C(=C\\c5ccc6ncsc6c5)C(=O)N4)(C3)C1)C2",
    "value": 6.34
  },
  {
    "compound": "COC[C@H](NC1=N/C(=C\\c2ccc3ncsc3c2)C(=O)N1)c1ccccc1",
    "value": 5.29
  },
  {
    "compound": "O=C1NC(Nc2ccccn2)=N/C1=C\\c1ccc2ncsc2c1",
    "value": 5.78
  },
  {
    "compound": "O=C1NC(N[C@@H](CO)CC2CCCCC2)=N/C1=C\\c1ccc2ncsc2c1",
    "value": 5.48
  },
  {
    "compound": "O=C1NC(NC2CCCCCC2)=N/C1=C\\c1ccc2[nH]ncc2c1",
    "value": 5.40
  },
  {
    "compound": "CN(C)C12CC3CC(CC(NC4=N/C(=C\\c5ccc6ncsc6c5)C(=O)N4)(C3)C1)C2",
    "value": 5.87
  },
  {
    "compound": "O=C1NC(NCc2nc3ccccc3s2)=N/C1=C\\c1ccc2ncsc2c1",
    "value": 5.04
  },
  {
    "compound": "O=C1NC(NC2CCCSC2)=N/C1=C\\c1ccc2ncsc2c1 (racemic)",
    "value": 5.14
  },
  {
    "compound": "O=C1NC(NC23CC4(F)CC(F)(CC(F)(C4)C2)C3)=N/C1=C\\c1ccc2ncsc2c1",
    "value": 7.03
  }
]

Please give pIC50, item by item, for the list that follows.
1. O=C1NC(NC2CCCCC2)=N/C1=C\c1ccc2ncsc2c1
2. Cc1cnc(CNC2=N/C(=C\c3ccc4ncsc4c3)C(=O)N2)cn1

Outgoing:
5.15
5.04

---

I'd appreciate it if you could supply log10 IC50 values for the items below.
Biological target: Dual specificity tyrosine-phosphorylation-regulated kinase 3 (Homo sapiens, UniProt O43781)
Sequence (O43781 whole entry): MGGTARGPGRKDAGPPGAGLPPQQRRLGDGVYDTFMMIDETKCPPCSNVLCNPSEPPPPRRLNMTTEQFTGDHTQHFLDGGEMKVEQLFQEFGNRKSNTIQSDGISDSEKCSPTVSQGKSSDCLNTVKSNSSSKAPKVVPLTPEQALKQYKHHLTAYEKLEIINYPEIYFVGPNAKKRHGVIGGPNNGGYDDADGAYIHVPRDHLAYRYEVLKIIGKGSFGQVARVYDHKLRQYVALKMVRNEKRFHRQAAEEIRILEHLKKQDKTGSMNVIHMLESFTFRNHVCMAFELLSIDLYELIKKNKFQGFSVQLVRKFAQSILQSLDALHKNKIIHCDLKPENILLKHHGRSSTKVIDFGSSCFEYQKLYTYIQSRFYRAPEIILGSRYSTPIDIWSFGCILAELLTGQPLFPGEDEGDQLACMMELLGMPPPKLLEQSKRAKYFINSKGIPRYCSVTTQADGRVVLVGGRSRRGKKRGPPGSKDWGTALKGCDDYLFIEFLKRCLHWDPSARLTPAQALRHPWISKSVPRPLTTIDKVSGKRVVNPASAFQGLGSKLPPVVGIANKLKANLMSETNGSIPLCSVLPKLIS
Heads up, the numbers here are log10 of IC50 in nM units.

Some entries whose results are on file:
[
  {
    "compound": "O=C1NC(NCc2ccccc2)=N/C1=C\\c1ccc2ncsc2c1",
    "value": 3.21
  },
  {
    "compound": "CN1CCN(c2ccc(NC3=N/C(=C\\c4ccc5c(c4)OCCO5)C(=O)N3)cc2)CC1",
    "value": 1.15
  },
  {
    "compound": "CC(C)[C@@H]1CC[C@@H](C)C[C@H]1NC1=N/C(=C\\c2ccc3ncsc3c2)C(=O)N1",
    "value": 3.39
  },
  {
    "compound": "O=C1NC(NC2CCCCCC2)=N/C1=C\\c1ccc2c(c1)CCO2",
    "value": 3.62
  },
  {
    "compound": "O=C1NC(NC2CCC(F)(F)C2)=N/C1=C\\c1ccc2ncsc2c1 (racemic)",
    "value": 2.48
  }
]

Could you tell me log10 IC50 for each of these compounds? They are listed below.
1. CN1CCC(NC2=N/C(=C\c3ccc4ncsc4c3)C(=O)N2)C1=O (racemic)
2. CN1CCCC(NC2=N/C(=C\c3ccc4ncsc4c3)C(=O)N2)C1 (racemic)

Outgoing:
1. 3.37
2. 2.95

---

Biological target: Glycogen synthase kinase-3 beta (Homo sapiens, UniProt P49841)
Sequence (P49841 whole entry): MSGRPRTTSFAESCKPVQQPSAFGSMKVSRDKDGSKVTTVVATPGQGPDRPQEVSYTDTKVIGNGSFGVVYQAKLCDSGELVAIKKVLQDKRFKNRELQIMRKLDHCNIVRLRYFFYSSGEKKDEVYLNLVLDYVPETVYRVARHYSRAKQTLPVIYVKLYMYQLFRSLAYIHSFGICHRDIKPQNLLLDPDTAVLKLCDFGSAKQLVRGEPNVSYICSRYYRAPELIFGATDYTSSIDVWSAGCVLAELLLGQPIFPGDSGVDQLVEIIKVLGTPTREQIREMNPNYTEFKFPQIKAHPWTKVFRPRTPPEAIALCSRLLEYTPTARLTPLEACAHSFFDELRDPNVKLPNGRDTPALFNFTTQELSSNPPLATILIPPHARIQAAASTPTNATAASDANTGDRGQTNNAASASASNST
outcomeMeasure: pIC50
Numbers only, as −log10 of the molar value.

[
  {
    "recordSmiles": "CS(=O)(=O)NC12CC3CC(CC(NC4=N/C(=C\\c5ccc6ncsc6c5)C(=O)N4)(C3)C1)C2",
    "measuredTarget": "Glycogen synthase kinase-3 beta (Homo sapiens, UniProt P49841)",
    "value": 6.29
  },
  {
    "recordSmiles": "O=C1NC(NC23CC4CC(CC(C4)C2)C3)=N/C1=C\\c1ccc2[nH]ncc2c1",
    "measuredTarget": "Glycogen synthase kinase-3 beta (Homo sapiens, UniProt P49841)",
    "value": 5.11
  },
  {
    "recordSmiles": "CO[C@H]1CCCC[C@@H]1NC1=N/C(=C\\c2ccc3ncsc3c2)C(=O)N1",
    "measuredTarget": "Glycogen synthase kinase-3 beta (Homo sapiens, UniProt P49841)",
    "value": 5.06
  },
  {
    "recordSmiles": "COC(=O)[C@H](CC(C)C)NC1=N/C(=C\\c2ccc3ncsc3c2)C(=O)N1",
    "measuredTarget": "Glycogen synthase kinase-3 beta (Homo sapiens, UniProt P49841)",
    "value": 5.39
  }
]

Record pIC50 for all entries; do not skip any.
1. CN1CCN(c2ccc(NC3=N/C(=C\c4ccc5c(c4)OCCO5)C(=O)N3)cc2)CC1
2. COC(=O)[C@@H](NC1=N/C(=C\c2ccc3ncsc3c2)C(=O)N1)C(C)C

Outgoing:
1: 6.92; 2: 5.08

---

Target: Dual specificity tyrosine-phosphorylation-regulated kinase 4 (Homo sapiens, UniProt Q9NR20)
Sequence (Q9NR20 whole entry): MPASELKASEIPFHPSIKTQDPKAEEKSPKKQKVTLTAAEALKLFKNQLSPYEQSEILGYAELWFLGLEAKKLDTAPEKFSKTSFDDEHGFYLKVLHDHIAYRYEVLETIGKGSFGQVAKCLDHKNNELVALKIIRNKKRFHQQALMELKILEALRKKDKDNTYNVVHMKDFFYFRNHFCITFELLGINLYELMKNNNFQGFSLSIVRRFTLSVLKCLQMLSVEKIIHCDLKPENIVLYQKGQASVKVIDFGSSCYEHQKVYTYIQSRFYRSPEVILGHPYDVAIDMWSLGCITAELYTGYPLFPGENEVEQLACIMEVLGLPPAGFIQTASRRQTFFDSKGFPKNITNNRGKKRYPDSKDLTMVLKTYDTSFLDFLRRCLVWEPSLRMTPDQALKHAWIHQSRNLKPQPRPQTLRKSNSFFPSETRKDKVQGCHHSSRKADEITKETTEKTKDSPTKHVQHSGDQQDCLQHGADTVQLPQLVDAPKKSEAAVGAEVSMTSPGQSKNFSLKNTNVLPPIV
For each entry below, report its pIC50 value.
Answers are plain numbers, as −log10 of the molar value.

Solved cases (5 shown):
[
  {
    "compound": "CC(C)C[C@H](CO)NC1=N/C(=C\\c2ccc3ncsc3c2)C(=O)N1",
    "value": 6.12
  },
  {
    "compound": "O=C1NC(NC2CC3CCC2C3)=N/C1=C\\c1ccc2ncsc2c1 (racemic)",
    "value": 6.59
  },
  {
    "compound": "O=C1NC(Nc2cccnc2)=N/C1=C\\c1ccc2ncsc2c1",
    "value": 5.88
  },
  {
    "compound": "O=C1NC(N[C@H]2CCCOC2)=N/C1=C\\c1ccc2ncsc2c1",
    "value": 6.24
  },
  {
    "compound": "O=C1NC(NC2CCCCC2)=N/C1=C\\c1ccc2ncsc2c1",
    "value": 6.18
  }
]

Incoming: Param item = O=C1NC(NC2CCCCC2(F)F)=N/C1=C\c1ccc2ncsc2c1 (racemic) ; retrieve measured pIC50.
Outgoing: 6.84

---

Molecular target: Glycogen synthase kinase-3 beta (Homo sapiens)
Format: cell-based, Sf9
outcomeMeasure: IC50 (µM)
One number for each entry, in µM.

// solved cases for IC50 follow
[
  {
    "recordSmiles": "O=C1NC(NC2CCCCCC2)=N/C1=C\\c1ccc2ncoc2c1",
    "outcomeMeasure": "IC50",
    "value": 3.02
  },
  {
    "recordSmiles": "O=C1NC(NCc2ccccc2)=N/C1=C\\c1ccc2ncsc2c1",
    "outcomeMeasure": "IC50",
    "value": 2.15
  },
  {
    "recordSmiles": "CC(C)(C)OC(=O)N1CCC(CNC2=N/C(=C\\c3ccc4ncsc4c3)C(=O)N2)CC1",
    "outcomeMeasure": "IC50",
    "value": 5.27
  },
  {
    "recordSmiles": "CN1CCN(c2ccc(NC3=N/C(=C\\c4ccc5c(c4)OCO5)C(=O)N3)cc2)CC1",
    "outcomeMeasure": "IC50",
    "value": 1.2
  },
  {
    "recordSmiles": "O=C1NC(N[C@H]2CCOC2)=N/C1=C\\c1ccc2ncsc2c1",
    "outcomeMeasure": "IC50",
    "value": 6.57
  }
]

For every listed record, write down its IC50.
1. O=C1NC(Nc2cccc(OC(F)F)c2)=N/C1=C\c1ccc2ncsc2c1
2. O=C1NC(Nc2ccccc2)=N/C1=C\c1ccc2ncsc2c1

Outgoing:
1: 3.68; 2: 2.22

---

Biological target: Dual specificity tyrosine-phosphorylation-regulated kinase 2 (Homo sapiens, UniProt Q92630)
Sequence (Q92630 whole entry): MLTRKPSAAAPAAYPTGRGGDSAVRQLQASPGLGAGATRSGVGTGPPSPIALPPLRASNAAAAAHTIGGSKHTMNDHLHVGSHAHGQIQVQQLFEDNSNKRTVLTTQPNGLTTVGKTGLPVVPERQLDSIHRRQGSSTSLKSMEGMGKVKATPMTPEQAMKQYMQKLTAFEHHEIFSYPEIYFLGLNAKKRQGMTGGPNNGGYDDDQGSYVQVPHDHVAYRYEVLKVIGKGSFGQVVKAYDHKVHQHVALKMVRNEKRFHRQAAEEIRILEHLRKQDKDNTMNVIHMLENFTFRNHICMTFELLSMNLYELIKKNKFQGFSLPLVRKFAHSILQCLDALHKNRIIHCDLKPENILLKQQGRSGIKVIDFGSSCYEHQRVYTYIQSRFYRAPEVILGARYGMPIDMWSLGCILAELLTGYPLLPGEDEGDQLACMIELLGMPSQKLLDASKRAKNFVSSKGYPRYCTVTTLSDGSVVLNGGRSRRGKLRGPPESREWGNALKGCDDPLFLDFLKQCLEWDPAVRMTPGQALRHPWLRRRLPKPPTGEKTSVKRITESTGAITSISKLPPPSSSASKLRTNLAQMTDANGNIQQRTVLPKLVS
pIC50: −log10 of the molar value.
So basically: pIC50 at 6 or higher? That is criterion met. Lower than 6? That is criterion not met.

[
  {
    "compound": "CN1CC[C@](C)(NC2=N/C(=C\\c3ccc4ncsc4c3)C(=O)N2)C1=O (stereo in doubt)",
    "class": "criterion not met"
  },
  {
    "compound": "O=C1NC(NC23CC4CC(CC(C4)C2)C3)=N/C1=C\\c1ccc2ncoc2c1",
    "class": "criterion met"
  },
  {
    "compound": "CO[C@H]1Cc2ccccc2[C@H]1NC1=N/C(=C\\c2ccc3ncsc3c2)C(=O)N1 (racemic)",
    "class": "criterion not met"
  }
]

Incoming: Answer whether pIC50 of CN1CCCC(NC2=N/C(=C\c3ccc4ncsc4c3)C(=O)N2)C1=O (racemic) is greater than or equal to 6.
Outgoing: criterion not met
